Data origin: ChEMBL document CHEMBL4184222

System: Mycobacterium tuberculosis
assay text: Inhibition of Mycobacterium tuberculosis shikimate kinase assessed as reduction in S3P production at 100 uM pre-incubated with 0.02 uM enzyme for 30 mins before ATP and shikimate substrate addition in absence of Triton X-100 by LC-MS assay
endpoint label: inhibition

{"structure": "O=C(/C=C/c1ccccc1)Nc1nnc(-c2ccc3c(c2)CCCC3)o1", "endpoint label": "inhibition", "result": "95%"}
{"structure": "CSc1ccc2nc(Nc3nc4ccc(NC(C)=O)cc4s3)sc2c1", "endpoint label": "inhibition", "result": "97.4%"}
{"structure": "O=C(Nc1nnc(-c2ccccc2Cl)o1)c1cccc(Oc2ccccc2)c1", "endpoint label": "inhibition", "result": "90%"}
{"structure": "Cc1ccc(-c2nnc(NC(=O)c3ccc([N+](=O)[O-])o3)o2)c(C)c1", "endpoint label": "inhibition", "result": "91.6%"}

###

Test system: Mycobacterium tuberculosis
assay text: Inhibition of Mycobacterium tuberculosis shikimate kinase assessed as reduction in S3P production at <50 uM pre-incubated for 30 mins before ATP and shikimate substrate addition by LC-MS assay
This section presents compounds with their documented inhibition values.

{"structure": "Cc1ccc(-c2nnc(NC(=O)c3ccccc3Cl)o2)c(C)c1", "inhibition": "> 90%"}
{"structure": "CCSc1ccc(C(=O)Nc2nnc(-c3ccco3)o2)cc1", "inhibition": "> 90%"}
{"structure": "CCc1cccc2sc(N(CCCn3ccnc3)C(=O)/C=C/c3cccs3)nc12", "inhibition": "> 90%"}

###

assay text: Inhibition of Mycobacterium tuberculosis shikimate kinase assessed as reduction in S3P production […] pre-incubated with 0.015 uM enzyme for 30 mins before ATP and shikimate substrate addition by LC-MS assay
Reported IC50 values are given for each entry in this list.

{"structure": "Cc1ccc(-c2nnc(NC(=O)c3ccc([N+](=O)[O-])o3)o2)c(C)c1", "unit of measurement": "µM", "IC50": 65.7}
{"structure": "COc1cc(C=O)ccc1OCc1ccccc1COc1ccc(/C=C2/SC(=S)NC2=O)cc1OC", "unit of measurement": "µM", "IC50": 10.1}
{"structure": "O=C(/C=C/c1ccccc1)Nc1nnc(-c2ccc3c(c2)CCCC3)o1", "unit of measurement": "µM", "IC50": 58.4}
{"structure": "CSc1ccc2nc(Nc3nc4ccc(NC(C)=O)cc4s3)sc2c1", "unit of measurement": "µM", "IC50": 60.6}
{"structure": "O=C(Nc1nnc(-c2ccccc2Cl)o1)c1cccc(Oc2ccccc2)c1", "unit of measurement": "µM", "IC50": 38.7}

###

assay text: Aggregation property of the compound in water at pH 7 assessed as light scattering intensity counts at 100 uM in presence of Triton X-100 by dynamic light scattering method
Assay type: physicochemical
protocol conditions: buffer, pH 7, 100 µM
endpoint label: Activity (kCounts)

{"structure": "CCc1cccc2sc(N(CCCn3ccnc3)C(=O)/C=C/c3cccs3)nc12", "quantitative readout": 270}
{"structure": "CCCCC(=O)Nc1nnc(-c2ccc3c(c2)CCCC3)o1", "quantitative readout": 100}
{"structure": "O=C(c1cccs1)N(CCCn1ccnc1)c1nc2c(F)cc(F)cc2s1", "quantitative readout": 142}
{"structure": "O=C(/C=C/c1ccccc1)Nc1nnc(-c2ccc3c(c2)CCCC3)o1", "quantitative readout": 138}
{"structure": "Cc1cc(C)c2sc(N3CCCC3)nc2c1", "quantitative readout": 130}
{"structure": "CCSc1ccc(C(=O)Nc2nnc(-c3ccco3)o2)cc1", "quantitative readout": 85}
{"structure": "O=C(Nc1nnc(-c2ccccc2Cl)o1)c1cccc(Oc2ccccc2)c1", "quantitative readout": 170}
{"structure": "CSc1ccc2nc(Nc3nc4ccc(NC(C)=O)cc4s3)sc2c1", "quantitative readout": 115}
{"structure": "Cc1ccc(C)c(-c2nnc(NC(=O)c3ccc([N+](=O)[O-])s3)o2)c1", "quantitative readout": 80}
{"structure": "CCSc1ccc(C(=O)Nc2nnc(-c3ccc4c(c3)CCCC4)o2)cc1", "quantitative readout": 152}
{"structure": "CC(C)(C)C(=O)Nc1nnc(-c2ccc(Br)cc2)o1", "quantitative readout": 92}
{"structure": "Cc1ccc(-c2nnc(NC(=O)c3ccc([N+](=O)[O-])o3)o2)c(C)c1", "quantitative readout": 72}
{"structure": "Cc1ccc(-c2nnc(NC(=O)c3ccccc3Cl)o2)c(C)c1", "quantitative readout": 95}
{"structure": "CCOc1ccc(C(=O)Nc2nnc(-c3ccc(C)cc3C)o2)cc1", "quantitative readout": 122}
